Parameter EC50: see the listing below.
TARGET OR TEST SYSTEM: UniProt:P36544
TEST METHOD NOTES: cell-based

# example entries with known answers
COMPOUND | READOUT VALUE
O=C(N[C@H]1CN2CCC1CC2)c1ccc(=O)n(-c2ncc(Cl)s2)c1 | 0.1 to 0.5 µM
O=C(NC1CN2CCC1CC2)c1ccc(=O)n(-c2ncc(C3CCCCC3)s2)c1 (centres unmarked) | 0.1 to 0.5 µM
CC(C)(C)c1cnc(-n2cc(C(=O)N[C@@H]3CN4CCC3CC4)ccc2=O)s1 | 0.5 to 1 µM
CC(C)(C)c1cnc(-n2cc(C(=O)NC3CN4CCC3CC4)ccc2=O)s1 (centres unmarked) | 0.1 to 0.5 µM
CCCc1cnc(-n2cc(C(=O)NC3CN4CCC3CC4)ccc2=O)s1 (centres unmarked) | 0.1 to 0.5 µM

Q) Dear colleague, I am looking for the recorded EC50 of the following compound: Cc1cnc(-n2cc(C(=O)N[C@@H]3CN4CCC3CC4)ccc2=O)s1
A) 0.5 to 1 µM

Q) Now consider CC(C)(C)c1cnc(-n2cc(C(=O)N[C@H]3CN4CCC3CC4)ccc2=O)s1 and answer again.
A) 0.1 to 0.5 µM

Q) Try O=C(N[C@@H]1CN2CCC1CC2)c1ccc(=O)n(-c2nccs2)c1 next.
A) 0.1 to 0.5 µM

Q) Let us now turn to CC(C)c1cnc(-n2cc(C(=O)NC3CN4CCC3CC4)ccc2=O)s1 (centres unmarked)
A) 0.1 to 0.5 µM

Q) What do we get for O=C(NC1CN2CCC1CC2)c1ccc(=O)n(-c2nccs2)c1 (centres unmarked) ?
A) 0.1 to 0.5 µM

---

TARGET OR TEST SYSTEM: UniProt:P36544
TEST METHOD NOTES: cell-based
RUN PARAMETERS: HEK293T/17 cells transfected with human α7 nAChR and RIC3; with PNU-120596; fluorescence relative to 1 μM epibatidine; read-out: EC50 of human α7 nAChR
pEC50: −log10 of the molar value.
PROPERTY MEASURED: pEC50

Solved entries (count: 3):
MOLECULE | pEC50
O=C(N[C@@H]1CN2CCC1CC2)c1ccc(=O)n(-c2ncc(Cl)s2)c1 | < 6.00
CCc1cnc(-n2cc(C(=O)N[C@H]3CN4CCC3CC4)ccc2=O)s1 | > 7.00
Cc1cnc(-n2cc(C(=O)N[C@H]3CN4CCC3CC4)ccc2=O)s1 | > 7.00

Query molecule follows.
Q) What value of pEC50 has been reported for the following molecule? Cc1csc(-n2cc(C(=O)NC3CN4CCC3CC4)ccc2=O)n1 (stereo not shown)
A) < 6.00

---

TARGET OR TEST SYSTEM: UniProtKB P36544
TEST METHOD NOTES: cell-based
RUN PARAMETERS: HEK293T/17 cells transfected with human α7 nAChR and RIC3; with PNU-120596; fluorescence relative to 1 μM epibatidine; read-out: EC50 of human α7 nAChR
A collection of molecules and their measured EC50

Solved entries (count: 4):
MOLECULE | TARGET OR TEST SYSTEM | EC50
Cc1nnc(-n2cc(C(=O)NC3CN4CCC3CC4)ccc2=O)s1 (centres unmarked) [Example 42] | UniProtKB P36544 | > 1 µM
O=C(NC1CN2CCC1CC2)c1ccc(=O)n(-c2ccc(Cl)cn2)c1 (centres unmarked) [Example 6] | UniProtKB P36544 | > 1 µM
CC(C)c1cnc(-n2cc(C(=O)N[C@H]3CN4CCC3CC4)ccc2=O)s1 [Example 18] | UniProtKB P36544 | < 0.1 µM
O=C(NC1CN2CCC1CC2)c1ccc(=O)n(-c2cc(-c3ccccc3)no2)c1 (centres unmarked) [Example 9] | UniProtKB P36544 | > 1 µM

// next entry
Q) Entry O=C(NC1CN2CCC1CC2)c1ccc(=O)n(-c2ncc(Cl)s2)c1 (centres unmarked) [Example 26] , system UniProtKB P36544: what EC50 was measured?
A) < 0.1 µM

---

Listing: pEC50 of selected compounds
TARGET OR TEST SYSTEM: human α7 nAChR (Homo sapiens (Human), UniProt P36544)
Sequence (P36544 23-502 limits assumed): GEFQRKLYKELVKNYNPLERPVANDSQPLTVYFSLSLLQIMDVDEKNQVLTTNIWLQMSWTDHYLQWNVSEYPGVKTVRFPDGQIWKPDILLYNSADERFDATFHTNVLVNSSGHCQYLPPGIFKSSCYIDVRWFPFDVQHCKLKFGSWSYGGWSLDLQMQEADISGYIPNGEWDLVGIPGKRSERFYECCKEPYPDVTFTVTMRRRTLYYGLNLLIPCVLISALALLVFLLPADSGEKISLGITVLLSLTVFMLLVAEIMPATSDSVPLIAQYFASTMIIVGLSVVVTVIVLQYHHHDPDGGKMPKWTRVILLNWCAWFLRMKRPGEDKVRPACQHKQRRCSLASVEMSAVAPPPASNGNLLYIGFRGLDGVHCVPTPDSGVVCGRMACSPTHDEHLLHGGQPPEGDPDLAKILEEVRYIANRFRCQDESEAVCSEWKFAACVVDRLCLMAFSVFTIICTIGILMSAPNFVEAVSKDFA
TEST METHOD NOTES: cell-based
pEC50: −log10 of the molar value.

Q) Looking for the measured pEC50 of O=C(NC1CN2CCC1CC2)c1ccc(=O)n(-c2ncc(C3CCCC3)s2)c1 (stereo not shown) , can you help?
A) 6.30 to 7.00

Q) What do you get for Cc1cnc(-n2cc(C(=O)NC3CN4CCC3CC4)ccc2=O)s1 (stereo not shown) ?
A) 6.30 to 7.00

Q) Also check CCc1cnc(-n2cc(C(=O)NC3CN4CCC3CC4)ccc2=O)s1 (stereo not shown)
A) 6.30 to 7.00

Q) Same read-out for O=C(NC1CN2CCC1CC2)c1ccc(=O)n(-c2ncc(-c3ccccc3)s2)c1 (stereo not shown) ?
A) 6.00 to 6.30

Q) Another compound to check: CC(C)c1cnc(-n2cc(C(=O)N[C@@H]3CN4CCC3CC4)ccc2=O)s1
A) 6.30 to 7.00

Q) Next: O=C(NC1CN2CCC1CC2)c1ccc(=O)n(-c2ncc(Cc3ccccc3)s2)c1 (stereo not shown)
A) 6.30 to 7.00

---

TARGET OR TEST SYSTEM: human α7 nAChR (Homo sapiens (Human), UniProt P36544)
TEST METHOD NOTES: cell-based
pEC50: −log10 of the molar value.
pEC50 values, listed per item

Worked examples, 2 molecules total:
MOLECULE | READOUT VALUE
O=C(NC1CN2CCC1CC2)c1ccc(=O)n(-c2ccc(-c3ccccc3)cn2)c1 (stereo not shown) | 6.30 to 7.00
CCc1cnc(-n2cc(C(=O)N[C@@H]3CN4CCC3CC4)ccc2=O)s1 | 6.30 to 7.00

Q) Report pEC50 for O=C(N[C@H]1CN2CCC1CC2)c1ccc(=O)n(-c2nccs2)c1 please.
A) 6.30 to 7.00

Q) Try the molecule O=C(NC1CN2CCC1CC2)c1ccc(=O)n(-c2nc3ccccc3s2)c1 (stereo not shown)
A) 6.30 to 7.00
